Cited source for all entries: paper PMC10227015

experiment: Acute in vivo toxicity, unique IP injection
testContext: male, mouse, in vivo; Swiss mice, IP, unique injection; read-out: Maximum tolerated dose
measurementLabel: MTD at 72 h

CCCN(c1nc(-c2nc(N)cc(N)n2)cs1)c1cc(-c2ccc(S(=O)(=O)N3CCN(C)CC3)cc2C(F)(F)F)ccc1C [OR0642]	> 80 mg/kg

// batch mode: one MTD at 72 h value per listed entry
1. CCCN(c1nc(-c2nc(N)cc(N)n2)cs1)c1cc(-c2ccc(S(=O)(=O)N3CCN(C)CC3)c(OC)c2)ccc1C [OR0635]
2. CCCN(c1nc(-c2nc(N)cc(N)n2)cs1)c1cc(-c2ccc(S(=O)(=O)N3CCN(C)CC3)nc2)ccc1C [OR0634]

1. > 40 mg/kg
2. > 80 mg/kg
